test system: U-2932; assay: growth inhibition by drug plus 177Lu-lilotomab satetraxetan (1 - RLU/untreated control) (fraction); higher = stronger inhibition; conditions: 1000 nM; time (day): 3; 177Lu-lilotomab satetraxetan 1 ug/ml
Given measured growth inhibition by drug plus 177Lu-lilotomab satetraxetan, output TRUE if it is greater than or equal to 0.05 and FALSE if not.

A selection of reference data follows.
[[record]]
compound = "CN(CCOc1ccc(CC2SC(=O)NC2=O)cc1)c1ccccn1 (stereo not given)"
assigned_label = "FALSE"

[[record]]
compound = "COc1cc(N2CCC(N3CCN(C)CC3)CC2)ccc1Nc1ncc(Cl)c(Nc2ccccc2S(=O)(=O)C(C)C)n1"
assigned_label = "TRUE"

[[record]]
compound = "CN(C)c1ccccc1CN1CCCN(Cc2ccccc2N(C)C)C1c1ccncc1"
assigned_label = "FALSE"

[[record]]
compound = "Nc1ccccc1NC(=O)c1ccc(CNC(=O)OCc2cccnc2)cc1"
assigned_label = "TRUE"

[[record]]
compound = "Cc1ccc(-c2cc(C(F)(F)F)nn2-c2ccc(S(N)(=O)=O)cc2)cc1"
assigned_label = "FALSE"


Tell me whether growth inhibition by drug plus 177Lu-lilotomab satetraxetan is at least 0.05 here: Cc1[nH]c(/C=C2\C(=O)Nc3ccc(S(=O)(=O)N(C)c4cccc(Cl)c4)cc32)c(C)c1C(=O)N1CCN(C)CC1
FALSE

Check Cn1cnc2c(F)c(Nc3ccc(Br)cc3Cl)c(C(=O)NOCCO)cc21 [AZD6244 (Selumetinib)] too.
TRUE

Check N#CC[C@H](C1CCCC1)n1cc(-c2ncnc3[nH]ccc23)cn1 too.
FALSE

Check CCN(CC)C(=S)SSC(=S)N(CC)CC too.
TRUE

Check CCC1=C[C@@H]2CN(C1)Cc1c([nH]c3ccccc13)[C@@](C(=O)OC)(c1cc3c(cc1OC)N(C)[C@H]1[C@@](O)(C(=O)OC)[C@H](OC(C)=O)[C@]4(CC)C=CCN5CC[C@]31[C@@H]54)C2 too.
TRUE

Check O=C(O[C@@H]1Cc2c(O)cc(O)cc2O[C@@H]1c1cc(O)c(O)c(O)c1)c1cc(O)c(O)c(O)c1 [(-)-Epigallocatechin gallate] too.
FALSE

Check CC(C)C[C@H](NC(=O)[C@H](Cc1ccccc1)NC(=O)c1cnccn1)B(O)O too.
TRUE

Check COc1cccc2c1C(=O)c1c(O)c3c(c(O)c1C2=O)C[C@@](O)(C(=O)CO)C[C@@H]3O[C@H]1C[C@H](N)[C@H](O)[C@H](C)O1 too.
TRUE

Check Nc1cccc2c1C(=O)N(C1CCC(=O)NC1=O)C2=O (stereo not given) [Pomalidomide] too.
TRUE

====

test system: RIVA; assay: growth inhibition by drug plus 177Lu-lilotomab satetraxetan (1 - RLU/untreated control) (fraction); higher = stronger inhibition; settings: 10 nM; time (day): 4; 177Lu-lilotomab satetraxetan 0.5 ug/ml
So basically, the class depends on measured growth inhibition by drug plus 177Lu-lilotomab satetraxetan, and the ranges are band A: < 0.5; band B: ≥ 0.5 and < 0.6; band C: ≥ 0.6

A selection of reference data follows.
[[record]]
compound = "C[C@]12CC[C@@H]3c4ccc(O)cc4CC[C@H]3[C@@H]1CC[C@@H]2O"
assigned_label = "band B"

[[record]]
compound = "O=C1NC(=O)/C(=C\\c2cccc(C(F)(F)F)c2)S1"
assigned_label = "band A"

[[record]]
compound = "CN(CCOc1ccc(CC2SC(=O)NC2=O)cc1)c1ccccn1 (centres undefined)"
assigned_label = "band B"

[[record]]
compound = "CCC(C)n1ncn(-c2ccc(N3CCN(c4ccc(OCC5COC(Cn6cncn6)(c6ccc(Cl)cc6Cl)O5)cc4)CC3)cc2)c1=O (centres undefined) [Itraconazole (Sporanox)]"
assigned_label = "band C"

[[record]]
compound = "O=C(/C=C/C#Cc1cccc(NS(=O)(=O)c2ccccc2)c1)NO"
assigned_label = "band B"


State the class of the compound shown: Nc1cccc2c1C(=O)N(C1CCC(=O)NC1=O)C2=O (centres undefined) [Pomalidomide]
band B

====

# growth inhibition by drug alone listing for each entry below
test system: RIVA; assay: growth inhibition by drug alone (1 - RLU/untreated control) (fraction); higher = stronger inhibition; details: 100 nM; time (day): 4; 177Lu-lilotomab satetraxetan 0 ug/ml

Worked set:
[[record]]
compound = "N#Cc1ccc(COC[C@H]2O[C@@H](n3c(NCc4ccc(Cl)c(Cl)c4)nc4c(N)ncnc43)[C@H](O)[C@@H]2O)cc1"
assay_target = "RIVA"
measured_value = -0.326

[[record]]
compound = "CCOc1ccn(-c2ccc(F)cc2)c(=O)c1C(=O)Nc1ccc(Oc2ccnc(N)c2Cl)c(F)c1"
assay_target = "RIVA"
measured_value = 0.013

[[record]]
compound = "CN(C)C/C=C/C(=O)Nc1cc2c(Nc3ccc(F)c(Cl)c3)ncnc2cc1O[C@H]1CCOC1"
assay_target = "RIVA"
measured_value = -0.147

[[record]]
compound = "Nc1nc2[nH]cc(CCc3ccc(C(=O)N[C@@H](CCC(=O)O)C(=O)O)cc3)c2c(=O)[nH]1"
assay_target = "RIVA"
measured_value = -0.377

[[record]]
compound = "CNC(=O)c1cc(COc2nnc(Nc3ccc(Cl)cc3)c3ccoc23)ccn1"
assay_target = "RIVA"
measured_value = -0.207

[[record]]
compound = "CCC(C)(C)C(=O)O[C@H]1C[C@@H](C)C=C2C=C[C@H](C)[C@H](CC[C@@H]3C[C@@H](O)CC(=O)O3)[C@H]21 [Simvastatin (Zocor)]"
assay_target = "RIVA"
measured_value = -0.0809

[[record]]
compound = "COc1cc2ncnc(-n3nc(-c4ccccn4)nc3N)c2cc1OC"
assay_target = "RIVA"
measured_value = -0.0495


Continue with the next compound.
Dear colleague, I am looking for the recorded growth inhibition by drug alone of the following compound: COc1ccc(CCN(C)CCCOc2ccc(S(=O)(=O)c3c(C(C)C)n(C)c4ccccc34)cc2)cc1OC
-0.25

====

system: RIVA; assay: growth inhibition by drug alone (1 - RLU/untreated control) (fraction); higher = stronger inhibition; conditions: 100 nM; time (day): 3; 177Lu-lilotomab satetraxetan 0 ug/ml
# growth inhibition by drug alone listing for each entry below
Reply briefly: the number, and no unit.

// map Cc1ccc(NC(=O)c2ccc(CN3CC[C@H](N(C)C)C3)c(C(F)(F)F)c2)cc1Nc1nccc(-c2cncnc2)n1 [Bafetinib (INNO-406)] to recorded growth inhibition by drug alone (system: RIVA)
-0.279

Check C[C@H](NC(=O)Cc1cc(F)cc(F)c1)C(=O)N[C@@H]1C(=O)N(C)c2ccccc2-c2ccccc21 too.
-0.307

Check CN(CCOc1ccc(CC2SC(=O)NC2=O)cc1)c1ccccn1 (stereo not given) [Rosiglitazone (Avandia)] too.
-0.131

Check CN(Cc1cnc2nc(N)nc(N)c2n1)c1ccc(C(=O)N[C@@H](CCC(=O)O)C(=O)O)cc1 [Abitrexate (Methotrexate)] too.
-0.038

Check Nc1nc(Nc2ccc(S(N)(=O)=O)cc2)nn1C(=O)c1c(F)cccc1F too.
-0.0601

Check CC[C@@H]1C(=O)N(C)c2cnc(Nc3ccc(C(=O)NC4CCN(C)CC4)cc3OC)nc2N1C1CCCC1 too.
0.937

Check CO[C@H]1C[C@@H]2CC[C@@H](C)[C@@](O)(O2)C(=O)C(=O)N2CCCC[C@H]2C(=O)O[C@H]([C@H](C)C[C@@H]2CC[C@@H](OC(=O)C(C)(CO)CO)[C@H](OC)C2)CC(=O)[C@H](C)/C=C(\C)[C@@H](O)[C@@H](OC)C(=O)[C@H](C)C[C@H](C)/C=C/C=C/C=C/1C [Temsirolimus (Torisel)] too.
0.803

Check Nc1nc(OCc2cc(Br)cs2)c2[nH]cnc2n1 [Lomeguatrib] too.
-0.0285

Check O=C(O)C(=O)O.[NH-]C1CCCCC1[NH-].[Pt+2] (stereo not given) [Oxaliplatin (Eloxatin)] too.
-0.171

Check Nc1nc(Cl)nc2c1ncn2[C@@H]1O[C@H](CO)[C@@H](O)[C@@H]1F [Clofarabine] too.
0.384

Check O=C(Nc1cccnc1)N1CCC(Cc2cccc(Oc3ccc(C(F)(F)F)cn3)c2)CC1 too.
-0.00381

Check CC(C)(C)c1cnc(CSc2cnc(NC(=O)C3CCNCC3)s2)o1 too.
-0.524

Check Nc1cccc2c1C(=O)N(C1CCC(=O)NC1=O)C2=O (stereo not given) [Pomalidomide] too.
-0.0764

Check CC1(C)CNc2cc(NC(=O)c3cccnc3NCc3ccncc3)ccc21 [Motesanib Diphosphate] too.
-0.22

Check COc1cc2nccc(Oc3ccc(NC(=O)NC4CC4)c(Cl)c3)c2cc1C(N)=O [E7080 (Lenvatinib)] too.
-0.113

====

# growth inhibition by drug alone listing for each entry below
tested on: RIVA; test: growth inhibition by drug alone (1 - RLU/untreated control) (fraction); higher = stronger inhibition; conditions: 100 nM; time (day): 6; 177Lu-lilotomab satetraxetan 0 ug/ml
Reply briefly: the number, and no unit.

[[record]]
compound = "C=CC[C@@H]1/C=C(\\C)C[C@H](C)C[C@H](OC)[C@H]2O[C@@](O)(C(=O)C(=O)N3CCCC[C@H]3C(=O)O[C@H](/C(C)=C/[C@@H]3CC[C@@H](O)[C@H](OC)C3)[C@H](C)[C@@H](O)CC1=O)[C@H](C)C[C@@H]2OC"
measured_value = 0.783


Dear colleague, I am looking for the recorded growth inhibition by drug alone of the following compound: COc1ncc(-c2ccc3nccc(-c4ccnnc4)c3c2)cc1NS(=O)(=O)c1ccc(F)cc1F
0.953

Check CC(C)(C)c1[nH]cnc1/C=c1\[nH]c(=O)/c(=C/c2ccccc2)[nH]c1=O too.
0.963

Check O=C(CCCCCCC(=O)Nc1ccccc1)NO [Vorinostat (SAHA)] too.
-0.285
